Recorded No of serum samples >30% inhibition (30% CCP) without SCP (serum samples) for the following binders
target-or-test-system: pre-existing anti-drug antibodies (ADA) present in human sera
assay-overview: pre-existing ADA ELISA, scFv coated, human sera unspiked vs spiked
Just the number, please.

{"binder": "PRO3344 (scFv 54-21-H03-sc01_(T101K, T146Q)) (scFv, PRO1922 variant; VH substitutions, AHo numbering; also called PRO1922 T101K-T146Q) scFv: DIQMTQSPSSLSASVGDRVTITCQASESIYSSLAWYQQKPGKAPKLLIYLASTLASGVPSRFSGSGSGTDFTLTISSLQPEDFATYYCQSTDYTTSTHRNSFGTGTKVTVLGGGGGSGGGGSGGGGSGGGGSEVQLVESGGGLVQPGGSLRLSCAASGFSFSTTYYMCWVRQAPGKGLEWIGCTNTASSVRTYYATWAKGRFTISRDNSKNTVYLQMNSLRAEDKAVYYCARDMGFADYALNLWGQGTLVQVSS", "recorded-result": 0}

Input PRO3345 (scFv 54-21-H03-sc01_(T101N, T146Q)) (scFv, PRO1922 variant; VH substitutions, AHo numbering; also called PRO1922 T101N-T146Q) scFv: DIQMTQSPSSLSASVGDRVTITCQASESIYSSLAWYQQKPGKAPKLLIYLASTLASGVPSRFSGSGSGTDFTLTISSLQPEDFATYYCQSTDYTTSTHRNSFGTGTKVTVLGGGGGSGGGGSGGGGSGGGGSEVQLVESGGGLVQPGGSLRLSCAASGFSFSTTYYMCWVRQAPGKGLEWIGCTNTASSVRTYYATWAKGRFTISRDNSKNTVYLQMNSLRAEDNAVYYCARDMGFADYALNLWGQGTLVQVSS . Output No of serum samples >30% inhibition (30% CCP) without SCP (serum samples): 0
